Measured normalized growth of individual entries
# method summary: chemical genetic growth profiling, strain panel (AID 1159580);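 further: tested at 20 µM; growth read once vehicle control cultures reached saturation at 30 °C; 1 = growth at the plate median or of vehicle wells; lower values mean less growth of the strain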
# recorded conditions: S. cerevisiae deletion strains, growth OD, locus YLR113W, strain HOG1, hits give low values
The whole screen tested about 5,500 compounds, of which about 2,000 (36%) were called active. Roughly 18% stayed inconclusive and do not appear here. This is one part of the list.
Answer field: number only, no words.

Recorded normalized growth, per entry:
{"compound": "COc1ccc(-c2csc(-c3cccnc3)n2)cc1", "normalized growth": 1.01}
{"compound": "COc1cc(OC)c2c(=O)cc(-c3ccccc3)oc2c1", "normalized growth": 0.952}
{"compound": "COC(=O)[C@@H]1OC(=O)C2OC23[C@@]1(C)CCC1[C@]2(C)C(C[C@@H](O)[C@]13C)C(C)(C)[C@H](OC(C)=O)C[C@@H]2OC(C)=O (some centres not stated)", "normalized growth": 1.08}
{"compound": "O=C(Nc1cc(C(F)(F)F)cc(C(F)(F)F)c1)C(Cl)(Cl)Cl", "normalized growth": 0.853}
{"compound": "Nc1ccccc1C(=O)Nc1cc(C(F)(F)F)cc(C(F)(F)F)c1", "normalized growth": 0.762}
{"compound": "Clc1ccccc1-c1csc(-c2ccncc2)n1", "normalized growth": 0.969}

## Input Please give the measured normalized growth for this compound: CC(=O)N[C@@H](CCC(=O)O)C(=O)O
## Output 0.999

* * *

# method summary: chemical genetic growth profiling, strain panel (AID 1159580);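 further: tested at 20 µM; growth read once vehicle control cultures reached saturation at 30 °C; 1 = growth at the plate median or of vehicle wells; lower values mean less growth of the strain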
# recorded conditions: S. cerevisiae deletion strains, growth OD, locus YHR030C, strain SLT2, hits give low values
The whole screen tested about 5,500 compounds, of which about 2,000 (36%) were called active. Not shown: some 18% with an inconclusive outcome. Some of the results follow.
Measured normalized growth of individual entries

Recorded normalized growth, per entry:
{"structure smiles string": "Clc1ccc2c(c1)CCc1cccnc1C2=C1CCNCC1", "normalized growth": "0.968 (inactive)"}
{"structure smiles string": "Clc1ccc(-c2cnc(Nc3cc(Cl)cc(Cl)c3)s2)cc1", "normalized growth": "0.117 (active)"}
{"structure smiles string": "O=[N+]([O-])c1ccsc1Oc1cccc(C(F)(F)F)c1", "normalized growth": "1.26 [resistant] (active)"}
{"structure smiles string": "N#Cc1ccc(Oc2sccc2[N+](=O)[O-])cc1", "normalized growth": "0.942 (inactive)"}
{"structure smiles string": "O=C1NC2(CCN(Cc3ccccc3)CC2)Oc2ccccc21", "normalized growth": "1.04 (inactive)"}

## Input Please give the measured normalized growth for this compound: Brc1cccc(C=NCc2ccccc2)c1
## Output 0.198 (active)

## Input Query COc1ccc2c(c1)CCc1sc(NC(=O)c3ccco3)nc1-2 next
## Output 0.757 (active)

* * *

# method summary: chemical genetic growth profiling, strain panel (AID 1159580);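 further: tested at 20 µM; growth read once vehicle control cultures reached saturation at 30 °C; 1 = growth at the plate median or of vehicle wells; lower values mean less growth of the strain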
# recorded conditions: S. cerevisiae deletion strains, growth OD, locus YCL061C, strain MRC1 (second series), hits give low values
Out of some 5,500 compounds screened, about 2,000 (36%) were called active. Roughly 18% stayed inconclusive and do not appear here. The list shows a part of the results.
Measured normalized growth of individual entries

Recorded normalized growth, per entry:
{"molecule": "COc1cc2c(CCNC(C)=O)c[nH]c2cc1O", "value": "1.01 (inactive)"}
{"molecule": "COc1cc(NS(C)(=O)=O)ccc1Nc1c2ccccc2nc2ccccc12", "value": "0.981 (inactive)"}
{"molecule": "CN(C)CCC(c1ccccc1)c1ccccn1 (stereo not given)", "value": "1.01 (inactive)"}
{"molecule": "O=C1CCCN1CC#CCN1CCCC1", "value": "1 (inactive)"}
{"molecule": "NCCC1CCCC(CCN)N1 (stereo not given)", "value": "1.01 (inactive)"}

## Input Please give the measured normalized growth for this molecule: CC(N)c1cccc(Cl)c1Cl (stereo not given)
## Output 1 (inactive)

## Input Query O=S1(=O)N(CCN2CC=C(c3c[nH]c4cc(F)ccc34)CC2)c2cccc3c2N1CCC3 next
## Output 0.987 (inactive)
